molecular target: human recombinant adrenergic α2A receptor (Homo sapiens, UniProt P08913); construct: expressed in transfected cells; host or cells: insect Sf9 cells; assay: Radioligand binding, adrenergic α2A ([3H]MK-912); conditions: 0.1 μM compound; read-out: Percentage inhibition of ligand binding, Adrenergic α2A
Sequence (P08913 whole entry): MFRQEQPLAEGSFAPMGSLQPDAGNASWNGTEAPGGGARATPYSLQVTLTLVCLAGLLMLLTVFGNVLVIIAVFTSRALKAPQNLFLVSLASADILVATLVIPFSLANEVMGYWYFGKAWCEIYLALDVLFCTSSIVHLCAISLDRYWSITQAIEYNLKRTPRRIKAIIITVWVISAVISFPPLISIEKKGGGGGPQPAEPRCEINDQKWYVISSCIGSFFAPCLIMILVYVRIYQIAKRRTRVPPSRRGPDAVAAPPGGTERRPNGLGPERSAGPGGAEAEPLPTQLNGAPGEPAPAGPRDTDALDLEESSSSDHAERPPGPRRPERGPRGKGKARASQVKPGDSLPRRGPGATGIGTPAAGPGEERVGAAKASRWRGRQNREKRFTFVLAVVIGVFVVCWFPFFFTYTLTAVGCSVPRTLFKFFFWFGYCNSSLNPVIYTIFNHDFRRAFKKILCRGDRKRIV
So basically: inhibition at 0.1 µM at 60% or higher? That is satisfied. Lower than 60%? That is not satisfied.

Given Cc1ccc2c(c1)c1c(n2C2=C(c3cccnc3)CCC2)CCN(C)C1 , state whether its inhibition at 0.1 µM is at least 60%.
satisfied

Given Cc1ccc2c(c1)c1c(n2C2=C(c3cnc(N(C)C)nc3)CCC2)CCN(C)C1 , state whether its inhibition at 0.1 µM is at least 60%.
satisfied

Given Cc1ccc2c(c1)c1c(n2CC(C)(O)c2ccc(O)nc2)CCN(C)C1 (centres unmarked) , state whether its inhibition at 0.1 µM is at least 60%.
not satisfied

Given Cc1ccc2c(c1)c1c(n2C2=C(c3ccc(C)nc3)CCC2)CCN(C)C1 , state whether its inhibition at 0.1 µM is at least 60%.
not satisfied

###

target: rat adrenergic α1B receptor (Rattus norvegicus, UniProt P15823); construct: rat adrenergic α1B receptor obtained from Wistar Rat liver; from tissue; host or cells: Wistar rat liver; test: Radioligand binding, adrenergic α1B ([3H]Prazosin); settings: compound at 0.1 μM; [3H]Prazosin; repeat datapoints each shown; 0.1 µM
Sequence (P15823 whole entry): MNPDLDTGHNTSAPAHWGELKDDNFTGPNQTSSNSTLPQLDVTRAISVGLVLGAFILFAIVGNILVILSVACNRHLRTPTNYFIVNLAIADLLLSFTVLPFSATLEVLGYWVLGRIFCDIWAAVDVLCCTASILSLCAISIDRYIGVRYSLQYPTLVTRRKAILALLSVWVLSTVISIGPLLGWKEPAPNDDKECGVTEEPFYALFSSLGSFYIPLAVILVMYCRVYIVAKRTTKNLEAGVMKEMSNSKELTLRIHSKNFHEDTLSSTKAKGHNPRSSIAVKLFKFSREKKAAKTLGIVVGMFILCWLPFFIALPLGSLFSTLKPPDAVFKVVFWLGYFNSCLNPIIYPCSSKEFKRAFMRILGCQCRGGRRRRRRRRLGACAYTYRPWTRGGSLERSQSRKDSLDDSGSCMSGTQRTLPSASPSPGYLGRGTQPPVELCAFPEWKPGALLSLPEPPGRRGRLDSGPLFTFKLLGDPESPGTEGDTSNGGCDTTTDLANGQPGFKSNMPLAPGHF
Provide the recorded Percentage inhibition of ligand binding, Adrenergic α1B (0.1 μM) for the entries that follow.
Just the number please, in %, no unit attached.

Item: Cc1ccc2c(c1)c1c(n2CC(OC(=O)c2ccncc2)c2ccncc2)CCN(C)C1 (single isomer, unassigned) [147b] Test system: rat adrenergic α1B receptor (Rattus norvegicus, UniProt P15823) Read-out: Percentage inhibition of ligand binding, Adrenergic α1B (0.1 μM) Value: ?
82

Item: Cc1cnc2c(c1)c1c(n2CC(C)(O)c2ccc(C)nc2)CCN2CCCC12 (single isomer, unassigned) [148b] Test system: rat adrenergic α1B receptor (Rattus norvegicus, UniProt P15823) Read-out: Percentage inhibition of ligand binding, Adrenergic α1B (0.1 μM) Value: ?
74

Item: Cc1cnc2c(c1)c1c(n2CC(C)(O)c2ccc(C(F)(F)F)nc2)CCN(C)C1 (single isomer, unassigned) [II-108a] Test system: rat adrenergic α1B receptor (Rattus norvegicus, UniProt P15823) Read-out: Percentage inhibition of ligand binding, Adrenergic α1B (0.1 μM) Value: ?
13

Item: Cc1cnc2c(c1)c1c(n2CC(N)c2ccc(C#N)cc2)CCN(C)C1 (single isomer, unassigned) [159a] Test system: rat adrenergic α1B receptor (Rattus norvegicus, UniProt P15823) Read-out: Percentage inhibition of ligand binding, Adrenergic α1B (0.1 μM) Value: ?
−2

Item: Cc1ccc2c(c1)c1c(n2CC(OC(=O)c2ccncc2)c2ccncc2)CCN(C)C1 (centres unmarked) [compound 147] Test system: rat adrenergic α1B receptor (Rattus norvegicus, UniProt P15823) Read-out: Percentage inhibition of ligand binding, Adrenergic α1B (0.1 μM) Value: ?
7

Item: CC1Cc2c(c3cc(Cl)ccc3n2CC(C)(O)c2cccnc2)CN1C (single isomer, unassigned) [II-147b] Test system: rat adrenergic α1B receptor (Rattus norvegicus, UniProt P15823) Read-out: Percentage inhibition of ligand binding, Adrenergic α1B (0.1 μM) Value: ?
20

Item: Cc1ccc2c(c1)c1c(n2CC(C)(O)c2cccnc2)CCN(C)C1C (single isomer, unassigned) [II-152b] Test system: rat adrenergic α1B receptor (Rattus norvegicus, UniProt P15823) Read-out: Percentage inhibition of ligand binding, Adrenergic α1B (0.1 μM) Value: ?
2

Item: Cc1ccc2c(c1)c1c(n2CC(O)c2cc[nH]c(=O)c2)CCN2CCCC12 (single isomer, unassigned) [II-132a] Test system: rat adrenergic α1B receptor (Rattus norvegicus, UniProt P15823) Read-out: Percentage inhibition of ligand binding, Adrenergic α1B (0.1 μM) Value: ?
33

Item: Cc1ccc2c(c1)c1c(n2CC(O)c2ccc(C#N)nc2)CCN(C)C1 (single isomer, unassigned) [140a] Test system: rat adrenergic α1B receptor (Rattus norvegicus, UniProt P15823) Read-out: Percentage inhibition of ligand binding, Adrenergic α1B (0.1 μM) Value: ?
59

Item: C/C(=C\n1c2c(c3cc(C)ccc31)CN(C)CC2)c1ccc(C)nc1 [compound 186] Test system: rat adrenergic α1B receptor (Rattus norvegicus, UniProt P15823) Read-out: Percentage inhibition of ligand binding, Adrenergic α1B (0.1 μM) Value: ?
55

Item: Cc1cnc2c(c1)c1c(n2CC(O)c2ccc(C#N)nc2)CCN(C)C1 (single isomer, unassigned) [II-114b] Test system: rat adrenergic α1B receptor (Rattus norvegicus, UniProt P15823) Read-out: Percentage inhibition of ligand binding, Adrenergic α1B (0.1 μM) Value: ?
7

Item: Cc1ccc2c(c1)c1c(n2CC(C)(OC(=O)C(C)C)c2cccnc2)CCN(C)C1 (single isomer, unassigned) [146b] Test system: rat adrenergic α1B receptor (Rattus norvegicus, UniProt P15823) Read-out: Percentage inhibition of ligand binding, Adrenergic α1B (0.1 μM) Value: ?
11

Item: Cc1cnc2c(c1)c1c(n2CC(C)(O)c2ccc(C)nc2)CCN2CCCC12 (single isomer, unassigned) [148a] Test system: rat adrenergic α1B receptor (Rattus norvegicus, UniProt P15823) Read-out: Percentage inhibition of ligand binding, Adrenergic α1B (0.1 μM) Value: ?
23

Item: CC(O)(Cn1c2c(c3cc(Cl)ccc31)CN(C1CCC1)CC2)c1cccnc1 (single isomer, unassigned) [II-118b] Test system: rat adrenergic α1B receptor (Rattus norvegicus, UniProt P15823) Read-out: Percentage inhibition of ligand binding, Adrenergic α1B (0.1 μM) Value: ?
11

Item: CC(O)(Cn1c2c(c3cc(Cl)ccc31)CNCC2)c1cccnc1 (single isomer, unassigned) [175a] Test system: rat adrenergic α1B receptor (Rattus norvegicus, UniProt P15823) Read-out: Percentage inhibition of ligand binding, Adrenergic α1B (0.1 μM) Value: ?
11

Item: CCN1CCc2c(c3cc(C)ccc3n2CC(O)c2ccc(C)cc2)C1 (single isomer, unassigned) [203a] Test system: rat adrenergic α1B receptor (Rattus norvegicus, UniProt P15823) Read-out: Percentage inhibition of ligand binding, Adrenergic α1B (0.1 μM) Value: ?
76

Item: Cc1ccc2c(c1)c1c(n2CC(C)(O)c2cnccn2)CCN2CCCC12 (single isomer, unassigned) [176a] Test system: rat adrenergic α1B receptor (Rattus norvegicus, UniProt P15823) Read-out: Percentage inhibition of ligand binding, Adrenergic α1B (0.1 μM) Value: ?
79

Item: CNC(Cn1c2c(c3cc(C)ccc31)CN(C)CC2)c1ccncc1 (single isomer, unassigned) [151b] Test system: rat adrenergic α1B receptor (Rattus norvegicus, UniProt P15823) Read-out: Percentage inhibition of ligand binding, Adrenergic α1B (0.1 μM) Value: ?
9

Item: CC(O)(Cn1c2c(c3cc(Cl)cnc31)C1CCCN1CC2)c1cccnc1 (single isomer, unassigned) [IV-210d] Test system: rat adrenergic α1B receptor (Rattus norvegicus, UniProt P15823) Read-out: Percentage inhibition of ligand binding, Adrenergic α1B (0.1 μM) Value: ?
19

Item: CCC(O)(Cn1c2c(c3cc(Cl)ccc31)CN(C)CC2)c1ccc(F)cc1 (centres unmarked) [II-160] Test system: rat adrenergic α1B receptor (Rattus norvegicus, UniProt P15823) Read-out: Percentage inhibition of ligand binding, Adrenergic α1B (0.1 μM) Value: ?
14

Item: Cc1ccc2c(c1Cl)c1c(n2CC(C)(O)c2cccnc2)CCN(C)C1 (single isomer, unassigned) [II-124a] Test system: rat adrenergic α1B receptor (Rattus norvegicus, UniProt P15823) Read-out: Percentage inhibition of ligand binding, Adrenergic α1B (0.1 μM) Value: ?
−2

Item: Cc1ccc2c(c1)c1c(n2CC(C)(O)c2ccc(C)nc2)CCN2CCCC12 (single isomer, unassigned) [II-128b] Test system: rat adrenergic α1B receptor (Rattus norvegicus, UniProt P15823) Read-out: Percentage inhibition of ligand binding, Adrenergic α1B (0.1 μM) Value: ?
86

Item: Cc1ccc(CCn2c3c(c4cc(Cl)cnc42)C2CCCN2CC3)cn1 (single isomer, unassigned) [137a] Test system: rat adrenergic α1B receptor (Rattus norvegicus, UniProt P15823) Read-out: Percentage inhibition of ligand binding, Adrenergic α1B (0.1 μM) Value: ?
94

Item: Cc1ccc2c(c1)c1c(n2CC(C)(OC(=O)C(C)C)c2cccnc2)CCN(C)C1 (single isomer, unassigned) [146a] Test system: rat adrenergic α1B receptor (Rattus norvegicus, UniProt P15823) Read-out: Percentage inhibition of ligand binding, Adrenergic α1B (0.1 μM) Value: ?
41

Item: Cc1ccc2c(c1)c1c(n2CC(N=[N+]=[N-])c2ccncc2)CCN(C)C1 (racemic) [V-1a] Test system: rat adrenergic α1B receptor (Rattus norvegicus, UniProt P15823) Read-out: Percentage inhibition of ligand binding, Adrenergic α1B (0.1 μM) Value: ?
20

Item: CC(O)(Cn1c2c(c3cc(Cl)cnc31)C1CCCN1CC2)c1cccnc1 (single isomer, unassigned) [IV-210c] Test system: rat adrenergic α1B receptor (Rattus norvegicus, UniProt P15823) Read-out: Percentage inhibition of ligand binding, Adrenergic α1B (0.1 μM) Value: ?
−4

Item: Cc1cnc2c(c1)c1c(n2CCc2cnc(C)nc2)CCN2CCCC12 (single isomer, unassigned) [IV-93a] Test system: rat adrenergic α1B receptor (Rattus norvegicus, UniProt P15823) Read-out: Percentage inhibition of ligand binding, Adrenergic α1B (0.1 μM) Value: ?
7

Item: Cc1ccc2c(c1)c1c(n2CC(C)(O)c2cccnc2)CC(C)N(C)C1 (single isomer, unassigned) [II-146c] Test system: rat adrenergic α1B receptor (Rattus norvegicus, UniProt P15823) Read-out: Percentage inhibition of ligand binding, Adrenergic α1B (0.1 μM) Value: ?
17

Item: Cc1ccc(C(C)(O)Cn2c3c(c4cc(Cl)ccc42)CN(C)CC3)cn1 (centres unmarked) [compound 93] Test system: rat adrenergic α1B receptor (Rattus norvegicus, UniProt P15823) Read-out: Percentage inhibition of ligand binding, Adrenergic α1B (0.1 μM) Value: ?
25

Data credit: patent US8791132B2
